- assayed_system: HIV-1 Env of isolate MGRM-F1-010 (subtype F) (HIV-1)
- method_notes: cell-based or functional assay
property_measured: IC50 (neutralization) (µg/mL)
State just the number; it will be interpreted in µg/mL.

Supply recorded IC50 (neutralization) for PGT-128 (antibody, V domains shown) VH: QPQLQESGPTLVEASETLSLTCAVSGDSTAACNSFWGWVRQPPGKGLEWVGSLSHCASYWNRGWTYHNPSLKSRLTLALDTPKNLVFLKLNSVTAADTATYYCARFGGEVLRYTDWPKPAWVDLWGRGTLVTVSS VL: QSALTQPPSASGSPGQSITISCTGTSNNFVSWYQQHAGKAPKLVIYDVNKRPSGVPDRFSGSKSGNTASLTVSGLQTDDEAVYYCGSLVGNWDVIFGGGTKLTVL here.
16.7
